- Test system: Noggin (protein binding on small-molecule microarray)
- experimental protocol: Noggin binders on small-molecule microarray, primary screen, biochemical, 635/667 nm fluorescence (AID 1095);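 further: score merges 667 nm feature fluorescence with signal to noise over triplicate slides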
- conditions used: 635 nm fluorescence, higher = more signal
Could you label it Criterion met if measured composite z-score is 0.5 or higher, and Criterion not met otherwise?

Record CCOC(=O)C[C@H]1[C@H](OC(=O)c2ccc(-c3ccccc3)cc2)[C@@H](NC(=O)Cc2ccc(OC)cc2)c2cc(OCCCO)ccc2N1C(=O)c1ccc2ccccc2n1 ; criterion: composite z-score no lower than 0.5. Met?
Criterion met

Could you tell me if the measured composite z-score of CCCNC(=O)[C@@]1(c2ccc([N+](=O)[O-])cc2)CC(=O)N(CC23CC4CC(CC(C4)C2)C3)[C@@H]1c1ccc(CO)cc1 reaches 0.5 or more?
Criterion met

Check the entry C=CCC(OC(C)=O)[C@@H]1[C@@H](N(Cc2ccc(-c3ccccc3)cc2)C(=O)Cc2ccc(F)cc2)c2cc(OCCCO)ccc2N1C(=O)c1ccc2ccccc2n1 (stereo partly specified) : does composite z-score equal or exceed 0.5?
Criterion not met

Record O=C1C2C=CC(C(O)c3ccc(F)cc3)N(Nc3ccccc3)C2C(=O)N1c1ccccc1 (stereo unspecified) ; criterion: composite z-score no lower than 0.5. Met?
Criterion not met

Reported composite z-score at or above 0.5? CCOC(=O)[C@H]1C/C=C/C[C@H](C(=O)OCC)C(=O)O[C@H]2[C@@H](OC)O[C@H](CO)[C@@H](OC(=O)Nc3ccc4c(c3)OCO4)[C@@H]2OC1=O
Criterion not met

Quick check, composite z-score >= 0.5? O=C1C2C=CC(C(O)c3ccc(B(O)O)cc3)N(Nc3ccccc3)C2C(=O)N1c1ccccc1 (stereo unspecified)
Criterion not met

# check: composite z-score of CCOC(=O)[C@H]1C[C@H]2O[C@@]23C[C@H]1C(=O)N1CCCC1[C@@H]3O[Si](C)(C)C(C)(C)C (stereo partly specified) is greater than or equal to 0.5
Criterion not met

Quick check, composite z-score >= 0.5? COc1cc2c(cc1O)C(C)N(Cc1cccc(OC(F)(F)F)c1)CC2 (stereo unspecified)
Criterion not met

Can COC(=O)C1=CC(CCCO)=CC(C2CC2)N(Cc2sc3ccccc3c2Cl)C=C1C(=O)OC (stereo unspecified) be said to have composite z-score at or above 0.5?
Criterion not met

Hi, just wondering whether COc1ccc(C(O)C2C=CC3C(=O)N(c4ccccc4)C(=O)C3N2Nc2ccc([N+](=O)[O-])cc2)cc1OCc1ccccc1 (stereo unspecified) shows composite z-score of 0.5 or higher.
Criterion not met

Has CC(C)NC(=O)[C@@]1(Cc2ccccc2I)c2ccccc2C(=O)N(Cc2ccccc2)[C@H]1c1ccc(CO)cc1 a recorded composite z-score greater than or equal to 0.5?
Criterion met

Answer whether composite z-score of C=C(C(=O)CC[C@H](OC(C)=O)c1ccc(OCCO)cc1)C(C)C is greater than or equal to 0.5.
Criterion met

Can CC(C)c1ccc(NN2C(C(O)c3ccc(N(C)C)cc3)C=CC3C(=O)N(c4ccccc4)C(=O)C32)cc1 (stereo unspecified) be said to have composite z-score at or above 0.5?
Criterion not met

Answer whether composite z-score of CC(C)(C)OC(=O)CC[C@@]1(C(=O)NCCN2CCOCC2)N=C(c2ccc(OCCCO)cc2)O[C@@H]1c1ccccc1 is greater than or equal to 0.5.
Criterion met

Reported composite z-score reaches at least 0.5 for C=CCNC(=O)[C@@H]1[C@H]2C(=O)O[C@H](c3ccccc3)[C@H](c3ccccc3)N2[C@H](c2ccccc2OCCO)[C@@]12C(=O)Nc1ccc(C#CC3=CCCCC3)cc12 ?
Criterion met
